Target of assay: Or22a (Drosophila melanogaster)
Construct: native receptor in ab3A olfactory sensory neurons of excised open antenna, with endogenous Orco; GCaMP6f calcium reporter; no heterologous expression; with Odorant receptor coreceptor
Sequence (P81909 whole entry): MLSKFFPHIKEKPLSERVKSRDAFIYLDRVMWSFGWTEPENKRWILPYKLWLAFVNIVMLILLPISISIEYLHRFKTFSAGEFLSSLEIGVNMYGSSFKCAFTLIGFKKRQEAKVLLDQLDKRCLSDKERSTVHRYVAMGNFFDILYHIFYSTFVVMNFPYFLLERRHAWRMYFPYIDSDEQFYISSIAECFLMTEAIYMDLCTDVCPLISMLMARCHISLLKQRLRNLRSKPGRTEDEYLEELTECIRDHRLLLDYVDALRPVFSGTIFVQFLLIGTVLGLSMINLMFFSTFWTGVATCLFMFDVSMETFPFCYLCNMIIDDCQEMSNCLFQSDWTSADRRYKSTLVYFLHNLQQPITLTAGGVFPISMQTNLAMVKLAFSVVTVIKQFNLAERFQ
Sequence (Q9VNB5 whole entry partner): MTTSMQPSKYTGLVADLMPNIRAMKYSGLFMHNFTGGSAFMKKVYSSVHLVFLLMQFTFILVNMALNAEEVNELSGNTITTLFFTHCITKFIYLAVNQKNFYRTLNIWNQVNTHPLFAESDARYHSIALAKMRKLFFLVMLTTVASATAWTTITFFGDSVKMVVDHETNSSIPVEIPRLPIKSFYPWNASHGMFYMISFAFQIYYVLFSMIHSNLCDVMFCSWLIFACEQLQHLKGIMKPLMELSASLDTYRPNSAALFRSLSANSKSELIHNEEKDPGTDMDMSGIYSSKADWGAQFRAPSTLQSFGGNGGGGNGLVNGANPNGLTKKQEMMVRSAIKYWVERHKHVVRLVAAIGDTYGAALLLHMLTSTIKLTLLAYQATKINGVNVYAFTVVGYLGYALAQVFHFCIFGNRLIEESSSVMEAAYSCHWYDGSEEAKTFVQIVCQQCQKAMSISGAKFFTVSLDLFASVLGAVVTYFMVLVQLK
Method description: GCaMP6f calcium imaging of native OSN somata, open antenna
Settings: agonist; Drosophila Ringer pH 7.3; Hill coefficient 0.8; concentration as applied; n = 12
Endpoint: EC50 (nM)
Report only the number, with the unit nM understood.

Form field EC50, entry CCCCCC(=O)OCC [ethyl hexanoate] : 1500

All values here come from paper PMC11241008.
